Where these numbers come from: patent US20230167062A1

Tested on: wheat powdery mildew
Experiment: In vivo protection activity against wheat powdery mildew (live pot determination)
Conditions: 400 ppm (Table 3)
Below: a set of entries, each annotated with reported control effects, Wheat powdery mildew.

Recorded control effects, Wheat powdery mildew for Cc1cc(OC(C)C)ccc1C(=O)C(C)(C)NC(=O)c1cccnc1Cl on wheat powdery mildew was 85

Recorded control effects, Wheat powdery mildew for Cc1cc(OC(C)C)ccc1C(=O)C(C)(C)NC(=O)c1cn(C)nc1C(F)(F)F on wheat powdery mildew was 85

Recorded control effects, Wheat powdery mildew for Cc1cc(OC(C)C)ccc1C(=O)C(C)(C)NC(=O)c1cccnc1C(F)F on wheat powdery mildew was 100

Recorded control effects, Wheat powdery mildew for Cc1cc(OC(C)C)ccc1C(=O)C(C)(C)NC(=O)c1c(C(F)(F)F)nn(C)c1Cl on wheat powdery mildew was 75

Recorded control effects, Wheat powdery mildew for Cc1cc(OC(C)C)ccc1C(=O)C(C)(C)NC(=O)c1cccnc1C(F)(F)F on wheat powdery mildew was 85

---

Test system: cucumber downy mildew
Test: In vivo protection activity against cucumber downy mildew (live pot determination)
Conditions: 400 ppm (Table 2)
Protocol: The test of in vivo protection effect is conducted on various fungal diseases of plants through samples of the compounds of the present invention. The determination results of the fungal activity are shown in the following embodiments. […]
ENDPOINT: control effects, Cucumber downy mildew

Known results for compounds:
smiles_notation=Cc1cc(OC(C)C)ccc1C(=O)C(C)(C)NC(=O)c1cn(C)nc1C(F)(F)F measurement=0
smiles_notation=Cc1cc(OC(C)C)ccc1C(=O)C(C)(C)NC(=O)c1cccnc1C(F)F measurement=40

# control effects, Cucumber downy mildew (compound: Cc1cc(OC(C)C)ccc1C(=O)C(C)(C)NC(=O)c1c(C(F)(F)F)nn(C)c1Cl ) is 0

# control effects, Cucumber downy mildew (compound: Cc1cc(OC(C)C)ccc1C(=O)C(C)(C)NC(=O)c1cccnc1C(F)(F)F ) is 0

# control effects, Cucumber downy mildew (compound: Cc1cc(OC(C)C)ccc1C(=O)C(C)(C)NC(=O)c1cccnc1Cl ) is 0
